The origin of these recorded values is ChEMBL document CHEMBL4414622.

TARGET DESC: Beta-1 adrenergic receptor (Homo sapiens) (UniProt P08588)
Sequence (P08588 whole entry, looked up): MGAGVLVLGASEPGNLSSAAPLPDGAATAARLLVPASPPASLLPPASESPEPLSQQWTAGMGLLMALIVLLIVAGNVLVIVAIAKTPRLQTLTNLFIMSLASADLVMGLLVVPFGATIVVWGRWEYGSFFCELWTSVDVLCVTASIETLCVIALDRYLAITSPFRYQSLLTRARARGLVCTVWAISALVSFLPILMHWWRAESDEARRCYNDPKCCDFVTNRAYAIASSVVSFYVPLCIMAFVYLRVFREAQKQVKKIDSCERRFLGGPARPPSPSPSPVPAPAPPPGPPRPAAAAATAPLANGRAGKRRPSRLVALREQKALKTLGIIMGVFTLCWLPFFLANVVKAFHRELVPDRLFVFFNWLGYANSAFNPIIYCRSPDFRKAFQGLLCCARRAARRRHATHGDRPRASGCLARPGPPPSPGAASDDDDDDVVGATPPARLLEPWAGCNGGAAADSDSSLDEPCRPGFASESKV
PROTOCOL DETAILS: Agonist activity at human beta1 adrenergic receptor expressed in CHOK1 cells co-expressing Galpha15 assessed as increase in calcium influx by measuring fluorescence intensity at 100 uM by FLIPR assay relative to epinephrine
Type: functional, cell-based
The source made the active and inactive calls. The rule behind the calls is not given here.
ENDPOINT LABEL: Activity

- COc1cc(C2NCCc3cc(O)c(O)cc32)cc(OC)c1OC (configuration not stated): inactive
- C[C@@H]1NCCc2cc(O)c(O)cc21: -9.5%
- OCc1ccc(C2=NCCc3cc(O)c(O)cc32)o1: -10.4%
- Oc1cc2c(cc1O)CCN=C2: -6.22%
- CC1NCCc2cc(O)c(O)cc21 (configuration not stated): -11.4%
- OCc1ccc(C2NCCc3cc(O)c(O)cc32)o1 (configuration not stated): -20.3%
- CC(C)C[C@H]1NCCc2cc(O)c(O)cc21: inactive

* * *

TARGET DESC: Beta-1 adrenergic receptor (Homo sapiens) (UniProt P08588)
PROTOCOL DETAILS: Agonist activity at human beta1 adrenergic receptor expressed in CHOK1 cells co-expressing Galpha15 assessed as increase in calcium influx by measuring fluorescence intensity at 100 uM by FLIPR assay relative to epinephrine
Assay type: functional, cell-based
Activity calls are given as the source filed them. No cut-off for these calls is given here.
ENDPOINT LABEL: Activity

- CC(C)CC1NCCc2cc(O)c(O)cc21 (centres undefined): inactive
- Oc1ccc(C2NCCc3cc(O)c(O)cc32)cc1 (centres undefined): inactive
- Oc1cccc(C2NCCc3cc(O)c(O)cc32)c1 (centres undefined): inactive
- Oc1cc2c(cc1O)C(c1ccco1)NCC2 (centres undefined): -35.3%
- Oc1cc2c(cc1O)C(c1ccccc1)NCC2 (centres undefined): inactive
- COc1ccc(C2NCCc3cc(O)c(O)cc32)cc1 (centres undefined): inactive
- Oc1cc2c(cc1O)C(Cc1ccccc1)NCC2 (centres undefined): 99.9%
- Oc1cc2c(cc1O)[C@@H](Cc1ccccc1)NCC2: 80.3%
- COc1ccccc1C1NCCc2cc(O)c(O)cc21 (centres undefined): inactive
- Oc1cc2c(cc1O)C(c1cccc3ccccc13)NCC2 (centres undefined): inactive
- CC1=NCCc2cc(O)c(O)cc21: -6.31%
- Oc1cc2c(cc1O)C(c1ccco1)=NCC2: 73.5%
- COc1cc(C2NCCc3cc(O)c(O)cc32)ccc1O (centres undefined): inactive
- Oc1ccc(C2NCCc3cc(O)c(O)cc32)cc1O (centres undefined): inactive

* * *

TARGET DESC: Beta-2 adrenergic receptor (Cavia porcellus, UniProt Q8K4Z4)
Sequence (Q8K4Z4 whole entry): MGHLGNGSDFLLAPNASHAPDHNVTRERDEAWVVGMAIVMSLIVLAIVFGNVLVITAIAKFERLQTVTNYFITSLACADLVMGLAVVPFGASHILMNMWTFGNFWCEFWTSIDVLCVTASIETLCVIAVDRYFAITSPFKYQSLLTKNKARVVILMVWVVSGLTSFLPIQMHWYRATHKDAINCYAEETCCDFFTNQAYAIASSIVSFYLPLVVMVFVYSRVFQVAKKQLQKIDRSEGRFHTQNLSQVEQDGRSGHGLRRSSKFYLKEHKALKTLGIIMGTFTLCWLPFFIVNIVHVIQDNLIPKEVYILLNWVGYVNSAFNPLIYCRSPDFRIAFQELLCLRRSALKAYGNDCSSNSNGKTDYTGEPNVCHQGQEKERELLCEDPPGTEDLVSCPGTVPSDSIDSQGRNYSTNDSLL
PROTOCOL DETAILS: Agonist activity at beta2 adrenergic receptor in guinea pig tracheal smooth muscle assessed as inhibition of histamine-induced tracheal smooth muscle contraction by measuring spasmolysis in absence of beta adrenergic receptor antagonist propranolol
ENDPOINT LABEL: EC50 (nM)

• CC(C)NCC(O)c1ccc(O)c(O)c1 (stereo not drawn) = 7.9
• CC(C)CC1NCCc2cc(O)c(O)cc21 (stereo not drawn) = 2800
• Oc1cc2c(cc1O)C(Cc1ccccc1)NCC2 (stereo not drawn) = 800

* * *

TARGET DESC: Alpha-1B adrenergic receptor (Homo sapiens) (UniProt P35368)
Sequence (P35368 whole entry): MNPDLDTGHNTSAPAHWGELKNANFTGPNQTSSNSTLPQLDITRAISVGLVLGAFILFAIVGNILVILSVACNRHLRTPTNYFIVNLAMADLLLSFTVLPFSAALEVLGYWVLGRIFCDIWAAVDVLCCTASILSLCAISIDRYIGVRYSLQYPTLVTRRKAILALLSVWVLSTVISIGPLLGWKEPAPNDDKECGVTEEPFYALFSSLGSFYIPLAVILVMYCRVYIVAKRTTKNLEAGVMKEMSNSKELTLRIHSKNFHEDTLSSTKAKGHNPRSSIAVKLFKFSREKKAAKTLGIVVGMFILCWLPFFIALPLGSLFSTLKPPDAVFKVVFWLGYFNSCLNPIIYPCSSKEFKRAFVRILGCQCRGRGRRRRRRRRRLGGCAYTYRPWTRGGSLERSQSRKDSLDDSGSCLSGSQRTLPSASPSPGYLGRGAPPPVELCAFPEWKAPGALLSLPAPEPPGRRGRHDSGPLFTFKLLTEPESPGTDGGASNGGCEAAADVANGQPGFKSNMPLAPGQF
PROTOCOL DETAILS: Agonist activity at human alpha1 beta adrenergic receptor expressed in CHOK1 cells co-expressing Galpha15 assessed as increase in calcium influx by measuring fluorescence intensity at 100 uM by FLIPR assay relative to epinephrine
Type: functional, cell-based
Consider the following molecules and their measured Activity readings.
ENDPOINT LABEL: Activity (%)

* Oc1cc2c(cc1O)C(c1ccco1)=NCC2 | 13.4
* COc1ccc(C2NCCc3cc(O)c(O)cc32)cc1 (stereo unspecified) | 18.5
* OCc1ccc(C2NCCc3cc(O)c(O)cc32)o1 (stereo unspecified) | 22.3
* COc1ccccc1C1NCCc2cc(O)c(O)cc21 (stereo unspecified) | 36.3
* CC(C)C[C@H]1NCCc2cc(O)c(O)cc21 | 20.5
* CC1NCCc2cc(O)c(O)cc21 (stereo unspecified) | 22.1
* Oc1cc2c(cc1O)CCN=C2 | 24.2
* COc1cc(C2NCCc3cc(O)c(O)cc32)cc(OC)c1OC (stereo unspecified) | 20.5
* Oc1cc2c(cc1O)C(Cc1ccccc1)NCC2 (stereo unspecified) | 39.4
* Oc1ccc(C2NCCc3cc(O)c(O)cc32)cc1 (stereo unspecified) | 31.9
* C[C@@H]1NCCc2cc(O)c(O)cc21 | 19.2
* Oc1cc2c(cc1O)[C@@H](Cc1ccccc1)NCC2 | 6.1
* OCc1ccc(C2=NCCc3cc(O)c(O)cc32)o1 | 13.7
* COc1cc(C2NCCc3cc(O)c(O)cc32)ccc1O (stereo unspecified) | 11.8
* Oc1cc2c(cc1O)C(c1ccco1)NCC2 (stereo unspecified) | 15.6
* Oc1cc2c(cc1O)C(c1ccccc1)NCC2 (stereo unspecified) | 51.5
* Oc1ccc(C2NCCc3cc(O)c(O)cc32)cc1O (stereo unspecified) | 16.6
* Oc1cccc(C2NCCc3cc(O)c(O)cc32)c1 (stereo unspecified) | 14.5
* CC(C)CC1NCCc2cc(O)c(O)cc21 (stereo unspecified) | 7.7
* CC1=NCCc2cc(O)c(O)cc21 | 15.9
* Oc1cc2c(cc1O)C(c1cccc3ccccc13)NCC2 (stereo unspecified) | 43.8

* * *

TARGET DESC: Beta-2 adrenergic receptor (Homo sapiens)
PROTOCOL DETAILS: Agonist activity at human beta2 adrenergic receptor expressed in CHOK1 cells co-expressing Galpha15 assessed as increase in calcium influx by measuring fluorescence intensity at 100 uM by FLIPR assay relative to isoproterenol
Type: functional, cell-based
Active and inactive are the calls of the source. The rule behind the calls is not given here.
ENDPOINT LABEL: Activity

* COc1cc(C2NCCc3cc(O)c(O)cc32)cc(OC)c1OC (centres undefined) | inactive
* OCc1ccc(C2NCCc3cc(O)c(O)cc32)o1 (centres undefined) | -11.1%
* Oc1ccc(C2NCCc3cc(O)c(O)cc32)cc1O (centres undefined) | inactive
* COc1cc(C2NCCc3cc(O)c(O)cc32)ccc1O (centres undefined) | inactive
* Oc1cccc(C2NCCc3cc(O)c(O)cc32)c1 (centres undefined) | inactive
* CC(C)CC1NCCc2cc(O)c(O)cc21 (centres undefined) | 64.5%
* COc1ccc(C2NCCc3cc(O)c(O)cc32)cc1 (centres undefined) | inactive
* Oc1cc2c(cc1O)C(c1ccco1)NCC2 (centres undefined) | -9.23%
* CC1NCCc2cc(O)c(O)cc21 (centres undefined) | 2.91%
* Oc1cc2c(cc1O)C(c1cccc3ccccc13)NCC2 (centres undefined) | inactive
* Oc1cc2c(cc1O)C(Cc1ccccc1)NCC2 (centres undefined) | 44.7%
* COc1ccccc1C1NCCc2cc(O)c(O)cc21 (centres undefined) | inactive
* Oc1ccc(C2NCCc3cc(O)c(O)cc32)cc1 (centres undefined) | inactive
* Oc1cc2c(cc1O)C(c1ccccc1)NCC2 (centres undefined) | inactive
